relative viability values, listed per item
test system: COR-L 105; assay: relative viability (nuclei count vs DMSO), 5 days (fraction); higher = more cells survive; settings: first compound 0.01 µM
Output: the number by itself.

See these solved cases before continuing.
# molecule, experimental-readout, reported
rows = [
    ("CCN(CC)CCCCNc1ncc2cc(-c3cc(OC)cc(OC)c3)c(NC(=O)NC(C)(C)C)nc2n1 + CC1(C)CCC(c2ccc(Cl)cc2)=C(CN2CCN(c3ccc(C(=O)NS(=O)(=O)c4ccc(N[C@H](CCN5CCOCC5)CSc5ccccc5)c(S(=O)(=O)C(F)(F)F)c4)cc3)CC2)C1 [Navitoclax] (partner 0.5 µM)", "relative viability", 0.811),
    ("O=c1cc(N2CCOCC2)oc2c(-c3cccc4c3sc3ccccc34)cccc12 + CCNC(=O)c1noc(-c2cc(C(C)C)c(O)cc2O)c1-c1ccc(CN2CCOCC2)cc1 [Luminespib] (partner 0.01 µM)", "relative viability", 0.738),
    ("CCN(CC)CCCCNc1ncc2cc(-c3cc(OC)cc(OC)c3)c(NC(=O)NC(C)(C)C)nc2n1 + O=C(c1cc(Cc2n[nH]c(=O)c3ccccc23)ccc1F)N1CCN(C(=O)C2CC2)CC1 [Olaparib] (partner 8 µM)", "relative viability", 0.805),
]

Consider the additional molecule presented here.
Ask: Form field: reported relative viability of O=c1cc(N2CCOCC2)oc2c(-c3cccc4c3sc3ccccc34)cccc12 + CC1(C)CCC(c2ccc(Cl)cc2)=C(CN2CCN(c3ccc(C(=O)NS(=O)(=O)c4ccc(N[C@H](CCN5CCOCC5)CSc5ccccc5)c(S(=O)(=O)C(F)(F)F)c4)cc3)CC2)C1 [Navitoclax] (partner 0.5 µM)
Reply: 0.91

====

system: NCI-H1299; assay: relative viability (nuclei count vs DMSO), 5 days (fraction); higher = more cells survive; details: first compound 1 µM
relative viability values, listed per item
Output: the number by itself.

See these solved cases before continuing.
# molecule, relative viability
records = [
    ("CCN(CC)CCCCNc1ncc2cc(-c3cc(OC)cc(OC)c3)c(NC(=O)NC(C)(C)C)nc2n1 + C[C@@H](Oc1cc(-c2cnn(C3CCNCC3)c2)cnc1N)c1c(Cl)ccc(F)c1Cl [Crizotinib] (partner 1 µM)", 0.89),
    ("O=c1cc(N2CCOCC2)oc2c(-c3cccc4c3sc3ccccc34)cccc12 + CS(=O)(=O)CCNCc1ccc(-c2ccc3ncnc(Nc4ccc(OCc5cccc(F)c5)c(Cl)c4)c3c2)o1 [Lapatinib] (partner 2 µM)", 0.964),
    ("CCN(CC)CCCCNc1ncc2cc(-c3cc(OC)cc(OC)c3)c(NC(=O)NC(C)(C)C)nc2n1 + CC(C)C[C@H](NC(=O)[C@H](Cc1ccccc1)NC(=O)c1cnccn1)B(O)O [Bortezomib] (partner 0.002 µM)", 0.954),
    ("O=c1cc(N2CCOCC2)oc2c(-c3cccc4c3sc3ccccc34)cccc12 + CC1(C)CCC(c2ccc(Cl)cc2)=C(CN2CCN(c3ccc(C(=O)NS(=O)(=O)c4ccc(N[C@H](CCN5CCOCC5)CSc5ccccc5)c(S(=O)(=O)C(F)(F)F)c4)cc3)CC2)C1 [Navitoclax] (partner 0.5 µM)", 1.04),
]

Ask: Form field: reported relative viability of CCN(CC)CCCCNc1ncc2cc(-c3cc(OC)cc(OC)c3)c(NC(=O)NC(C)(C)C)nc2n1 + O=C(c1cc(Cc2n[nH]c(=O)c3ccccc23)ccc1F)N1CCN(C(=O)C2CC2)CC1 [Olaparib] (partner 8 µM)
Reply: 0.998
